# Tgt: Protein skinhead-1 (Caenorhabditis elegans)
# Sequence (P34707 whole entry): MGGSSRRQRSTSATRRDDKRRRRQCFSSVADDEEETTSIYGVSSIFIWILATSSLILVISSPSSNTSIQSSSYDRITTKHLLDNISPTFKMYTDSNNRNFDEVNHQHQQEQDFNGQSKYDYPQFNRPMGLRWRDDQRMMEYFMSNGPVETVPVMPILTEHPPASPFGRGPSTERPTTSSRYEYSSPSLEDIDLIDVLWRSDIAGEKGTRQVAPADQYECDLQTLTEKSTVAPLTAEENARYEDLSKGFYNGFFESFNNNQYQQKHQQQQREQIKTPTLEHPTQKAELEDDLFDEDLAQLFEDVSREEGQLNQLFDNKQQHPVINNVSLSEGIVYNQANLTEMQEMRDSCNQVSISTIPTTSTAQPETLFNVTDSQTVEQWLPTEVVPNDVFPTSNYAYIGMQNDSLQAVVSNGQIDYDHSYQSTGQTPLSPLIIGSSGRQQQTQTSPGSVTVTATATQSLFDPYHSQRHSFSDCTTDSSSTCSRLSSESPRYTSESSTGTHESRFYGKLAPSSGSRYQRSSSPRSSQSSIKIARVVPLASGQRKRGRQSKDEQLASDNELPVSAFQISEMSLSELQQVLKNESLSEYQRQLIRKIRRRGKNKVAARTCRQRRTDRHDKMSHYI
# Type: functional
Activity calls are given as the source filed them.
Respond using exactly one of the listed classes: 1 (active), -1 (inactive)

Below, 2 compounds whose answers are already recorded.
[
  {
    "Compound": "CCOc1cc2c(cc1OCC)C(C(=O)O)C(c1cc(OC)c(OC)c(OC)c1)N(C)C2=O (stereo not drawn)",
    "Tgt": "Protein skinhead-1 (Caenorhabditis elegans)",
    "Label value": -1
  },
  {
    "Compound": "CCOC(=O)c1ccccc1NC(=O)Cc1ccccc1OC",
    "Tgt": "Protein skinhead-1 (Caenorhabditis elegans)",
    "Label value": -1
  }
]

Turning now to a further record.
Request: Name the outcome recorded for CSc1nsc(SCc2ccc(F)cc2)n1 in the assay.
Response: 1

###

# Tgt: Microphthalmia-associated transcription factor (Homo sapiens, UniProt O75030)
# Sequence (O75030 whole entry): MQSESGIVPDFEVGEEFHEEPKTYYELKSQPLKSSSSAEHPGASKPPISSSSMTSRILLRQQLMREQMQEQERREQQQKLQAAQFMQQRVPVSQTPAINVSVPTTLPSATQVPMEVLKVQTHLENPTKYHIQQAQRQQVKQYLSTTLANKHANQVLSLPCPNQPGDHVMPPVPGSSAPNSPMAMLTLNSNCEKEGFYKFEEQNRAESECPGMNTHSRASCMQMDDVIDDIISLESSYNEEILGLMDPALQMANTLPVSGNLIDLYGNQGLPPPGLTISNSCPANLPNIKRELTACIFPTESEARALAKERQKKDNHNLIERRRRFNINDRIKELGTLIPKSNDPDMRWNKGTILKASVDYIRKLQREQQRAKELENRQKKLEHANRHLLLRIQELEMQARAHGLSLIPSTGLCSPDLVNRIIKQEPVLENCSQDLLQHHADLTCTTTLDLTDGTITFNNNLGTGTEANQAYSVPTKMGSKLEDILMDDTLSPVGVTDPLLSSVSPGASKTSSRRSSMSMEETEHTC
# Procedure text: TRPM1 promoter luciferase signal decrease, dose response, MITF inhibitor project, cell-based, SK-MEL-5, cherry-picked, set 3 (AID 493073);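 note: SK-MEL-5 melanoma cells with luciferase driven by the MITF target TRPM1 promoter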
# Format: functional
The source made the active and inactive calls.
Quantity name: AC50

[
  {
    "Compound": "CC1CCN(CC2C(=O)O[C@@H]3C[C@@]4(C)CCC[C@H](C)C4=C[C@H]23)CC(C)(C)C1 (some centres not stated)",
    "Tgt": "Microphthalmia-associated transcription factor (Homo sapiens, UniProt O75030)",
    "Quantity name": "AC50",
    "Result": "16.1 µM (active)"
  },
  {
    "Compound": "CNC(=O)COC(=O)c1ccccc1C(=O)c1ccc(Cl)c([N+](=O)[O-])c1",
    "Tgt": "Microphthalmia-associated transcription factor (Homo sapiens, UniProt O75030)",
    "Quantity name": "AC50",
    "Result": "9.77 µM (active)"
  },
  {
    "Compound": "CCN(CC)CCNC(=O)c1c(C)n(-c2ccccc2)c2cc(Br)c(OC)cc12",
    "Tgt": "Microphthalmia-associated transcription factor (Homo sapiens, UniProt O75030)",
    "Quantity name": "AC50",
    "Result": "12.9 µM (active)"
  },
  {
    "Compound": "Cc1ccc(C)c(C(=O)Cn2ncc(Cl)c(Cl)c2=O)c1",
    "Tgt": "Microphthalmia-associated transcription factor (Homo sapiens, UniProt O75030)",
    "Quantity name": "AC50",
    "Result": "14.5 µM (active)"
  },
  {
    "Compound": "N=C(NOC(=O)c1ccccc1)c1ccccn1",
    "Tgt": "Microphthalmia-associated transcription factor (Homo sapiens, UniProt O75030)",
    "Quantity name": "AC50",
    "Result": "11.9 µM (active)"
  }
]

Request: Input CCn1c(C)cc(C(=O)CN2C(=O)c3ccccc3S2(=O)=O)c1C , output reported AC50.
Response: 1.99 µM (active)

Request: Return AC50 (reported value) for this compound: Cc1oc(-c2ccc(Cl)cc2)nc1CN1CCC(C(=O)NCCCN2CCCC(C)C2)CC1 (configuration not stated)
Response: 13.2 µM (active)

Entry source: ChEMBL document CHEMBL1201862
